Data origin: patent US8507560B2

Molecular target: FPRL-1 (Homo sapiens, UniProt P25090)
Construct: expressed in transfected cells
Sequence (P25090 1-351): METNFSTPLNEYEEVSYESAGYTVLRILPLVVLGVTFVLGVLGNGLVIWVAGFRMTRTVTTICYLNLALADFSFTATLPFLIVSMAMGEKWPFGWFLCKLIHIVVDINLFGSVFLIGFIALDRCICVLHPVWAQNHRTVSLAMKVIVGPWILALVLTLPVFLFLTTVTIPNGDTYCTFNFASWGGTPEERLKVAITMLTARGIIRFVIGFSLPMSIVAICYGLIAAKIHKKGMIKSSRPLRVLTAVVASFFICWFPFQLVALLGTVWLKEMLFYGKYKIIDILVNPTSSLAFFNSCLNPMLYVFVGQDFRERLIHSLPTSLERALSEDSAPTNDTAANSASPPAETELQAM
Test: FLIPR Tetra calcium activity assay in CHO-Ga16 cells stably expressing FPRL1
Type: cell-based
Settings: compound-induced calcium activity, efficacy value in parentheses
property: FPRL-1 Ga16-CHO (eff) efficacy
Number, no unit, nothing else.

COc1cc2c(cc1OC)CN(C(=O)C(CCCCNC(=O)c1ccco1)NC(=O)Nc1ccc(C)cc1)CC2 (stereo not shown) [Compound 1]; 0.61
COc1cc2c(cc1OC)CN(C(=O)C(CCCCNC(=O)NC1CCCCC1)NC(=O)Nc1ccc(SC)cc1)CC2 (stereo not shown) [Compound 4]; 0.71
COc1cc2c(cc1OC)CN(C(=O)C(CCCCNC(=O)Nc1ccccc1)NC(=O)Nc1ccc(SC)cc1)CC2 (stereo not shown) [Compound 3]; 0.76

INPUT: Enter reported FPRL-1 Ga16-CHO (eff) efficacy observed with FPRL-1 (Homo sapiens, UniProt P25090) for COc1cc2c(cc1OC)CN(C(=O)C(CCCCNC(=O)Nc1ccccc1)NC(=O)Nc1ccc(Br)cc1)CC2 (stereo not shown) [Compound 2]
OUTPUT: 0.79

====

Biological target: UniProt P25090
Sequence (P25090 1-351): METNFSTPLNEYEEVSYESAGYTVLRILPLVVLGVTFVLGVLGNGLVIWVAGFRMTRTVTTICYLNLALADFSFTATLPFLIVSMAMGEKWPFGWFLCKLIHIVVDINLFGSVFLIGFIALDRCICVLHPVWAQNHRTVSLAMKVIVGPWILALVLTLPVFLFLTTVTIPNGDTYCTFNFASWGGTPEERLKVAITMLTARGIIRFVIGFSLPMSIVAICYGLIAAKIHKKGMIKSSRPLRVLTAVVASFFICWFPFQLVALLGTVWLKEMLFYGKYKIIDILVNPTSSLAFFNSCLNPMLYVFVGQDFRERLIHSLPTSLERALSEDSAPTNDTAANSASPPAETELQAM
Assay: FLIPR Tetra calcium activity assay in CHO-Ga16 cells stably expressing FPRL1
Conditions: compound-induced calcium activity, 0.61 to 10,000 nM
EC50 values by entry
Write the numeric value and follow it with the unit.

Answered examples (3):
COc1cc2c(cc1OC)CN(C(=O)C(CCCCNC(=O)c1ccco1)NC(=O)Nc1ccc(C)cc1)CC2 (stereo not shown) [Compound 1]; 0.143 µM
COc1cc2c(cc1OC)CN(C(=O)C(CCCCNC(=O)NC1CCCCC1)NC(=O)Nc1ccc(SC)cc1)CC2 (stereo not shown) [Compound 4]; 0.059 µM
COc1cc2c(cc1OC)CN(C(=O)C(CCCCNC(=O)Nc1ccccc1)NC(=O)Nc1ccc(Br)cc1)CC2 (stereo not shown) [Compound 2]; 0.091 µM

Now for another entry.
INPUT: Look at this compound and give its reported EC50. COc1cc2c(cc1OC)CN(C(=O)C(CCCCNC(=O)Nc1ccccc1)NC(=O)Nc1ccc(SC)cc1)CC2 (stereo not shown) [Compound 3]
OUTPUT: 0.032 µM
